Taken from patent US9475809B2.

- TESTED SYSTEM: UniProt P03951
- Sequence (P03951 388-625): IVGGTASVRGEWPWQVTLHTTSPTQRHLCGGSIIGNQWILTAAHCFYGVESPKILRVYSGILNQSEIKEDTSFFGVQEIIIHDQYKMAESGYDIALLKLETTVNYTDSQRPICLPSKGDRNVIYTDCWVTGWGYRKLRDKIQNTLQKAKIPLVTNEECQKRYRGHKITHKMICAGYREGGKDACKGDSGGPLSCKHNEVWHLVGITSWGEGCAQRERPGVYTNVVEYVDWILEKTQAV
- Sequence (P03951 19-387 partner): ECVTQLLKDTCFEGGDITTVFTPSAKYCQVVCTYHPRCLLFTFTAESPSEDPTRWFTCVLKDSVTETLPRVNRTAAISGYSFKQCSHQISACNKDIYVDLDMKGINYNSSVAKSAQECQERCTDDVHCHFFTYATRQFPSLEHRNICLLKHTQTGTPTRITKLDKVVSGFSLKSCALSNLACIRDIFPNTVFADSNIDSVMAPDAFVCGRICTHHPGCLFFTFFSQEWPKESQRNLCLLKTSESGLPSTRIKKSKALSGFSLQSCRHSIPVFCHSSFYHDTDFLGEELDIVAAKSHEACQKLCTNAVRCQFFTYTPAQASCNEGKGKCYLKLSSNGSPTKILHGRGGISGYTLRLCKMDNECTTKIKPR
Doc: threshold 100 nM (exclusive). Items with IC50 beneath it return 1; others return -1.

q: Lab note: confirm whether the reported IC50 for this molecule is below 100 nM, equality not counting. molecule: N#Cc1ccc(Cl)cc1-c1cc(=O)n(CC(=O)Nc2ccc(-c3noc(=O)[nH]3)cc2)c2c1C(=O)CCC2
a: 1

q: Lab note: confirm whether the reported IC50 for this molecule is below 100 nM, equality not counting. molecule: O=C(Cn1c2c(c(-c3cc(Cl)ccc3Br)cc1=O)C(=O)CC2)Nc1ccc(-c2noc(=O)[nH]2)cc1
a: -1

q: Lab note: confirm whether the reported IC50 for this molecule is below 100 nM, equality not counting. molecule: N#Cc1ccc(Cl)cc1-c1cc(=O)n(CC(=O)Nc2ccc(-c3noc(=O)[nH]3)cc2)c2c1C(=O)CC2
a: 1

q: Lab note: confirm whether the reported IC50 for this molecule is below 100 nM, equality not counting. molecule: O=C(Cn1c2c(c(-c3cc(Cl)ccc3Cl)cc1=O)C(=O)CC2)Nc1ccc(-c2nc(C(F)(F)F)n[nH]2)cc1
a: -1

q: Lab note: confirm whether the reported IC50 for this molecule is below 100 nM, equality not counting. molecule: O=C(Cn1c2c(c(-c3cc(Cl)ccc3Br)cc1=O)C(=O)CC2)Nc1ccc(-c2nnn[nH]2)cc1
a: -1

q: Lab note: confirm whether the reported IC50 for this molecule is below 100 nM, equality not counting. molecule: N#Cc1ccc(Cl)cc1-c1cc(=O)n(CC(=O)Nc2ccc(-c3cc(=O)[nH][nH]3)cc2)c2c1C(=O)CC2
a: -1
